# Cmax per entry
Assay: Multi-component pharmacokinetics in rat plasma after oral administration of RB, RPA or RB-RPA extracts (UPLC-HRMS, non-compartmental analysis)
Format: in vivo, Sprague-Dawley rats
Details: rat plasma, oral administration of single extract RPA, mean ± SD, n = 7
Counter-ions that a name gives are not always drawn.
Give just the numeric value; ng/mL need not be written.

Consider the worked cases shown below.
{"molecule": "O=S(=O)(O)Oc1cccc(O)c1O [Pyrogallol sulfate]", "experimental_result": 18.42}
{"molecule": "CC1C2OC3(C)CC(=O)C1CC3(O)O2 (stereo not shown) [Paeonimetabolin I]", "experimental_result": 658.61}
{"molecule": "C[C@@]12C[C@@]3(O)O[C@@H](O1)[C@]1(CO)[C@H]3C[C@@]12O[C@@H]1O[C@H](CO)[C@@H](O)[C@H](O)[C@H]1O", "experimental_result": 8.76}

With those in mind, consider the next molecule.
Req: Fill blank: measured Cmax of the molecule C[C@]12C[C@@H](O)[C@@H]3C[C@@]1(O[C@@H]1O[C@H](CO)[C@@H](O)[C@H](O)[C@H]1O)[C@@]3(COC(=O)c1ccccc1)C(=O)O2 is ____.
Resp: 271.50

---

Experiment: Multi-component pharmacokinetics in rat plasma after oral administration of RB, RPA or RB-RPA extracts (UPLC-HRMS, non-compartmental analysis)
Assay type: in vivo, Sprague-Dawley rats
Conditions: male, Sprague-Dawley, rat, plasma, po, 45 g/kg, rat plasma, oral RB single extract 45 g-herb/kg, mean ± SD, n = 7; read-out: AUC0-t
result_type: AUC0-t
Hi, when you answer, please include the unit after the number. Thanks!

Req: Fill blank: measured AUC0-t of the molecule C[C@H]1O[C@@H](O[C@H]2CC[C@@]3(C)[C@@H](CC[C@]4(C)[C@@H]3C=C[C@]35OC[C@@]6(CCC(C)(C)C[C@H]63)[C@@H](O)C[C@]54C)[C@]2(C)CO)[C@H](O)[C@@H](O[C@@H]2O[C@H](CO)[C@@H](O)[C@H](O)[C@H]2O)[C@H]1O [Saikosaponin A] is ____.
Resp: 102 ng·h/mL

---

Experiment: Multi-component pharmacokinetics in rat plasma after oral administration of RB, RPA or RB-RPA extracts (UPLC-HRMS, non-compartmental analysis)
Assay type: in vivo, Sprague-Dawley rats
Details: male, Sprague-Dawley, rat, plasma, po, 45 g-herb/kg, rat plasma, oral RPA single extract 45 g-herb/kg, mean ± SD, n = 7; read-out: Cmax
result_type: Cmax (ng/mL)
Give just the numeric value; ng/mL need not be written.

Req: Fill blank: measured Cmax of the compound C[C@@]12C[C@@]3(O)O[C@@H](O1)[C@]1(COC(=O)c4ccccc4)[C@H]3C[C@@]12O[C@@H]1O[C@H](CO)[C@@H](O)[C@H](O)[C@H]1O [Paeoniflorin] is ____.
Resp: 1780

---

Assay: Multi-component pharmacokinetics in rat plasma after oral administration of RB, RPA or RB-RPA extracts (UPLC-HRMS, non-compartmental analysis)
Format: in vivo, Sprague-Dawley rats
Conditions: rat plasma, oral administration of mixed extracts RB-RPA, mean ± SD, n = 7
Where a name gives a salt, the structure may show the parent alone.
result_type: AUC0-∞ (ng·h/mL)
Give just the numeric value; ng·h/mL need not be written.

Consider the worked cases shown below.
{"compound": "C[C@@]12C[C@@]3(O)O[C@@H](O1)[C@]1(CO)[C@H]3C[C@@]12O[C@@H]1O[C@H](CO)[C@@H](O)[C@H](O)[C@H]1O", "unit": "ng·h/mL", "AUC0-∞": 28.66}
{"compound": "O=S(=O)(O)Oc1cccc(O)c1O [Pyrogallol sulfate]", "unit": "ng·h/mL", "AUC0-∞": 257.66}
{"compound": "CC1C2OC3(C)CC(=O)C1CC3(O)O2 (stereo not shown) [Paeonimetabolin I]", "unit": "ng·h/mL", "AUC0-∞": 4806.68}

With those in mind, consider the next compound.
Req: Fill blank: measured AUC0-∞ of the compound C[C@]12C[C@@H](O)[C@@H]3C[C@@]1(O[C@@H]1O[C@H](CO)[C@@H](O)[C@H](O)[C@H]1O)[C@@]3(COC(=O)c1ccccc1)C(=O)O2 is ____.
Resp: 1849.80

---

Test: Multi-component pharmacokinetics in rat plasma after oral administration of RB, RPA or RB-RPA extracts (UPLC-HRMS, non-compartmental analysis)
Assay type: in vivo, Sprague-Dawley rats
Details: rat plasma, oral RB single extract 45 g-herb/kg, mean ± SD, n = 7
# Cmax per entry
Give just the numeric value; ng/mL need not be written.

Consider the worked cases shown below.
{"compound": "CC(=O)OC[C@H]1O[C@@H](O[C@H]2[C@@H](O)[C@@H](C)O[C@@H](O[C@H]3CC[C@@]4(C)[C@@H](CC[C@]5(C)[C@@H]4C=CC46OCC7(CCC(C)(C)C[C@H]74)[C@H](O)C[C@]65C)[C@]3(C)CO)[C@@H]2O)[C@H](O)[C@@H](O)[C@@H]1O (stereo partly shown)", "Cmax (ng/mL)": 19.20}
{"compound": "C[C@H]1O[C@@H](O[C@@H]2CC[C@@]3(C)[C@@H](CC[C@]4(C)[C@@H]3C=C[C@]35OC[C@@]6(CCC(C)(C)C[C@H]63)[C@@H](O)C[C@]54C)[C@@]2(C)CO)[C@H](O)[C@@H](O)[C@H]1O", "Cmax (ng/mL)": 5.81}
{"compound": "C[C@@H]1O[C@@H](O[C@@H]2[C@H](O)[C@@H](O)[C@H](O[C@H]3CC[C@@]4(C)C(CC[C@]5(C)C4C=C[C@]46OC[C@@]7(CCC(C)(C)CC74)[C@@H](O)C[C@]65C)C3(C)C)O[C@@H]2CO[C@@H]2O[C@H](CO)[C@@H](O)[C@H](O)[C@H]2O)[C@H](O)[C@H](O)[C@H]1O (stereo partly shown)", "Cmax (ng/mL)": 31.12}

With those in mind, consider the next compound.
Req: Fill blank: measured Cmax of the compound CC1(C)CC[C@]23CO[C@@]4(C=C[C@@H]5[C@@]6(C)CC[C@H](O)[C@@](C)(CO)[C@@H]6CC[C@@]5(C)[C@]4(C)C[C@H]2O)[C@@H]3C1 is ____.
Resp: 11.26

---

# tmax per entry
Test: Multi-component pharmacokinetics in rat plasma after oral administration of RB, RPA or RB-RPA extracts (UPLC-HRMS, non-compartmental analysis)
Format: in vivo, Sprague-Dawley rats
Settings: rat plasma, oral RB single extract 45 g-herb/kg, mean ± SD, n = 7
Give just the numeric value; min need not be written.

{"compound": "C[C@H]1O[C@@H](O[C@H]2CC[C@@]3(C)[C@@H](CC[C@]4(C)[C@@H]3C=C[C@]35OC[C@@]6(CCC(C)(C)C[C@H]63)[C@H](O)C[C@]54C)[C@]2(C)CO)[C@H](O)[C@@H](O[C@@H]2O[C@H](CO)[C@@H](O)[C@H](O)[C@H]2O)[C@H]1O [Saikosaponin D]", "tmax, min": 30}
{"compound": "C[C@H]1O[C@@H](O[C@H]2CC[C@@]3(C)[C@@H](CC[C@]4(C)[C@@H]3C=C[C@]35OC[C@@]6(CCC(C)(C)C[C@H]63)[C@@H](O)C[C@]54C)[C@]2(C)CO)[C@H](O)[C@@H](O)[C@H]1O [Prosaikogenin F]", "tmax, min": 92.4}
{"compound": "C[C@H]1O[C@@H](O[C@H]2CC[C@@]3(C)[C@@H](CC[C@]4(C)[C@@H]3C=CC3=C5CC(C)(C)CC[C@]5(CO)[C@H](O)C[C@]34C)[C@]2(C)CO)[C@H](O)[C@@H](O)[C@H]1O [Prosaikogenin D]", "tmax, min": 49.8}

With those in mind, consider the next compound.
Req: Fill blank: measured tmax of the compound CC1(C)CC[C@]23CO[C@@]4(C=C[C@@H]5[C@@]6(C)CC[C@H](O)C(C)(C)[C@@H]6CC[C@@]5(C)[C@]4(C)C[C@@H]2O)[C@@H]3C1 [Saikogenin E] is ____.
Resp: 45

---

Assay: Multi-component pharmacokinetics in rat plasma after oral administration of RB, RPA or RB-RPA extracts (UPLC-HRMS, non-compartmental analysis)
Format: in vivo, Sprague-Dawley rats
Details: rat plasma, oral RB single extract 45 g-herb/kg, mean ± SD, n = 7
result_type: t1/2 (h)
Give just the numeric value; h need not be written.

Consider the worked cases shown below.
{"compound": "CC1(C)CC[C@]23CO[C@@]4(C=C[C@@H]5[C@@]6(C)CC[C@H](O)[C@@](C)(CO)[C@@H]6CC[C@@]5(C)[C@]4(C)C[C@H]2O)[C@@H]3C1 [Saikogenin G]", "unit": "h", "t1/2": 3.96}
{"compound": "CC(=O)OC[C@H]1O[C@@H](O[C@H]2[C@@H](O)[C@@H](C)O[C@@H](O[C@H]3CC[C@@]4(C)[C@@H](CC[C@]5(C)[C@@H]4C=CC46OCC7(CCC(C)(C)C[C@H]74)[C@H](O)C[C@]65C)[C@]3(C)CO)[C@@H]2O)[C@H](O)[C@@H](O)[C@@H]1O (stereo partly drawn) [Acetyl-saikosaponin D]", "unit": "h", "t1/2": 2.68}
{"compound": "CC1(C)CC[C@@]2(CO)C(=C3C=C[C@@H]4[C@@]5(C)CC[C@H](O)[C@@](C)(CO)[C@@H]5CC[C@@]4(C)[C@]3(C)C[C@H]2O)C1 [Saikogenin D]", "unit": "h", "t1/2": 5.10}
{"compound": "C[C@@H]1O[C@@H](O[C@@H]2[C@H](O)[C@@H](O)[C@H](O[C@H]3CC[C@@]4(C)C(CC[C@]5(C)C4C=C[C@]46OC[C@@]7(CCC(C)(C)CC74)[C@@H](O)C[C@]65C)C3(C)C)O[C@@H]2CO[C@@H]2O[C@H](CO)[C@@H](O)[C@H](O)[C@H]2O)[C@H](O)[C@H](O)[C@H]1O (stereo partly drawn) [Saikosaponin C]", "unit": "h", "t1/2": 2.07}
{"compound": "CC(=O)OC[C@H]1O[C@@H](O[C@H]2[C@@H](O)[C@@H](C)O[C@@H](O[C@H]3CC[C@@]4(C)[C@@H](CC[C@]5(C)[C@@H]4C=CC46OCC7(CCC(C)(C)C[C@H]74)[C@@H](O)C[C@]65C)[C@]3(C)CO)[C@@H]2O)[C@H](O)[C@@H](O)[C@@H]1O (stereo partly drawn) [Acetyl-saikosaponin A]", "unit": "h", "t1/2": 3.50}
{"compound": "C[C@H]1O[C@@H](O[C@H]2CC[C@@]3(C)[C@@H](CC[C@]4(C)[C@@H]3C=CC3=C5CC(C)(C)CC[C@]5(CO)[C@H](O)C[C@]34C)[C@]2(C)CO)[C@H](O)[C@@H](O)[C@H]1O [Prosaikogenin D]", "unit": "h", "t1/2": 3.38}

Req: Fill blank: measured t1/2 of the compound C[C@H]1O[C@@H](O[C@H]2CC[C@@]3(C)[C@@H](CC[C@]4(C)[C@@H]3C=C[C@]35OC[C@@]6(CCC(C)(C)C[C@H]63)[C@@H](O)C[C@]54C)[C@]2(C)CO)[C@H](O)[C@@H](O)[C@H]1O [Prosaikogenin F] is ____.
Resp: 2.91

Req: Fill blank: measured t1/2 of the compound C[C@H]1O[C@@H](O[C@@H]2CC[C@@]3(C)[C@@H](CC[C@]4(C)[C@@H]3C=C[C@]35OC[C@@]6(CCC(C)(C)C[C@H]63)[C@@H](O)C[C@]54C)[C@@]2(C)CO)[C@H](O)[C@@H](O)[C@H]1O [Prosaikogenin G] is ____.
Resp: 1.48
